Source of measurements: paper PMC7144380

Target: µ-opioid receptor (MOR), rat (Rattus norvegicus, UniProt P33535)
Construct: gene Oprm1; native receptor in rat brain membrane homogenate or rat vas deferens
Sequence (P33535 whole entry): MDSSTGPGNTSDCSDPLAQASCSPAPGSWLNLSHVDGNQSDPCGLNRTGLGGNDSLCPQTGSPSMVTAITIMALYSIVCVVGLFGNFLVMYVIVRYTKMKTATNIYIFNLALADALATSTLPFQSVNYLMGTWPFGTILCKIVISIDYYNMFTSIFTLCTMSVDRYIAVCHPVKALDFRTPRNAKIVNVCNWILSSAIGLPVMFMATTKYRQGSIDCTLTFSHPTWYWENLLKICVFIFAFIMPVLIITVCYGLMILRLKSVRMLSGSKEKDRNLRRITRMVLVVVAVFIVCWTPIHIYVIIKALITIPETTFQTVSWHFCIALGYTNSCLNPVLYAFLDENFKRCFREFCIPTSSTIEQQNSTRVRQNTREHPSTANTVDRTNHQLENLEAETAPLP
Format: binding
Details: read-out: Ki ± S.E.M. (nM) / [^3H]DAMGO (μ) ^1
Endpoint Label: Ki (nM)

{"Compound": "COc1ccc2c3c1O[C@H]1[C@@H](OS(=O)(=O)O)C=C[C@@]4(OC)[C@@H](C2)N(C)CC[C@]314 [14-methoxycodeine-6-O-sulfate]", "Endpoint Label": "Ki", "Meas Value": 3.37}

###

Target: MOR, mouse vas deferens (Mus musculus)
Construct: gene Oprm1; native receptor in isolated mouse vas deferens
Sequence (P42866 whole entry): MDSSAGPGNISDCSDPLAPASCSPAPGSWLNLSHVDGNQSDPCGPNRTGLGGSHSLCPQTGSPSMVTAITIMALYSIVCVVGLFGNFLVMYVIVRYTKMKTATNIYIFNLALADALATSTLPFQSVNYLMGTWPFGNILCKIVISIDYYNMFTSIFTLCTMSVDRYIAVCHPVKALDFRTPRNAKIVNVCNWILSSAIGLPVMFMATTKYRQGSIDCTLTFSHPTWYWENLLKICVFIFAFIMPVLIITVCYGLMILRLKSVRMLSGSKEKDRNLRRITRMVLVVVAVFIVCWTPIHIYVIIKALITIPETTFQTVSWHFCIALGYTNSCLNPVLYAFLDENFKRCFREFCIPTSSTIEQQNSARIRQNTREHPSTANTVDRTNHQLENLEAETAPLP
Conditions: read-out: EC50 ± S.E.M. (nM) / MVD

{"Compound": "COc1ccc2c3c1O[C@H]1[C@@H](OS(=O)(=O)O)C=C[C@@]4(OC)[C@@H](C2)N(C)CC[C@]314 [14-methoxycodeine-6-O-sulfate]", "EC50, nM": 239}
